- system name: UniProt:Q15858
- Sequence (Q15858 whole entry): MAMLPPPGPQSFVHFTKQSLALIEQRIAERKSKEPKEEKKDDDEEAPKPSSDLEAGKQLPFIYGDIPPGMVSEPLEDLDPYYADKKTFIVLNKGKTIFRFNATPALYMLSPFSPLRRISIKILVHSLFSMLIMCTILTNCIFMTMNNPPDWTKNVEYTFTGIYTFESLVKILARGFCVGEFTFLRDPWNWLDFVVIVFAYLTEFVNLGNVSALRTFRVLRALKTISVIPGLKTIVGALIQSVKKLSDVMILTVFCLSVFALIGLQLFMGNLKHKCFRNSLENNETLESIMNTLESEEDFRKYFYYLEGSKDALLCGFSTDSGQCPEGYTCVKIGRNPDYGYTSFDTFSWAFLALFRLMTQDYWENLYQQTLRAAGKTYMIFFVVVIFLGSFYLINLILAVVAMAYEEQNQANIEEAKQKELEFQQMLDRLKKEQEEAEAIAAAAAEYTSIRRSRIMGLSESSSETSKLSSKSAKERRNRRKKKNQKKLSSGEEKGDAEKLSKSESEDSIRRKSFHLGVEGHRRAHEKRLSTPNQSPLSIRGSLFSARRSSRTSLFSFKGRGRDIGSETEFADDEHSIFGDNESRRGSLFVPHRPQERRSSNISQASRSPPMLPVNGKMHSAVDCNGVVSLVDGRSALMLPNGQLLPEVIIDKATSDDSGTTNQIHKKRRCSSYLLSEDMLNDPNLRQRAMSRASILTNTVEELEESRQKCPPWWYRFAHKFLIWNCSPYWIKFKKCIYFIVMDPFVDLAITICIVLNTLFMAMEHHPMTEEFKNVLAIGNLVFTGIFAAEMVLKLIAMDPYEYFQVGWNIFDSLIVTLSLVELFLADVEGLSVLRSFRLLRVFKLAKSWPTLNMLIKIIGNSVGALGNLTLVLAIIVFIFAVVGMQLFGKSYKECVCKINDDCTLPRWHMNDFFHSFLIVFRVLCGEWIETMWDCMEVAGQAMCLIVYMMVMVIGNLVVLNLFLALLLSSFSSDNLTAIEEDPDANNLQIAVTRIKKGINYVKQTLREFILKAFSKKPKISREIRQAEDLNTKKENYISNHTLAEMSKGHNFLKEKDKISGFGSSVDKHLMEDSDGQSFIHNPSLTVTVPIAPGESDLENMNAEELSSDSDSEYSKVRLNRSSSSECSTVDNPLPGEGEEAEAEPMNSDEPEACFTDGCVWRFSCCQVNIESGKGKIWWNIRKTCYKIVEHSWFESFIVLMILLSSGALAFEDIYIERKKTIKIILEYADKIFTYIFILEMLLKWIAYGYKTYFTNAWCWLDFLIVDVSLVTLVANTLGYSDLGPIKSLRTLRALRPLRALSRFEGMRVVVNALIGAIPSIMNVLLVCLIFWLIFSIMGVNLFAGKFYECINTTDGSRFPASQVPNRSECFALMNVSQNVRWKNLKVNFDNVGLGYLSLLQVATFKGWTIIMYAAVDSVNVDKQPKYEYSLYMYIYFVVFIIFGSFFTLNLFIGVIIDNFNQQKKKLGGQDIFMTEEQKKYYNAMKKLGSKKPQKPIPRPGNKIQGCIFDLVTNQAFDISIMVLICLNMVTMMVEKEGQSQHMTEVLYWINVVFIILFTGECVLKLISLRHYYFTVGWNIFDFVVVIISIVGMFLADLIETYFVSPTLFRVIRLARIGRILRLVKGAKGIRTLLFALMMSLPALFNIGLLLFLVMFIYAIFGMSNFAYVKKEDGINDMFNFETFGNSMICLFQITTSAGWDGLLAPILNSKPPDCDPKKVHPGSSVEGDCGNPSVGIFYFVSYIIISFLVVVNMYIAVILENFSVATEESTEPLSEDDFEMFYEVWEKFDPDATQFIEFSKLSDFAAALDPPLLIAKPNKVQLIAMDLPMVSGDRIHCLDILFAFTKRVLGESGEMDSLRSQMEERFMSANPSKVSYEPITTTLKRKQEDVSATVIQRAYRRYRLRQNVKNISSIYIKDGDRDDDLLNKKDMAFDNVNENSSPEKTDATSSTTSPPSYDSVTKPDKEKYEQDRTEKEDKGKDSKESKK
- method: Nav 1.7 In Vitro PX Assay (PatchXpress whole cell voltage clamp)
- test conditions: in-vitro Nav 1.7 PX data
Provide the reported IC50 of each item.
State the result as a value with its unit after it.

# lookup: UniProt:Q15858 IC50, key = "CNC(=O)N(c1ccc(S(=O)(=O)Nc2ccon2)cn1)c1cc(Cl)c(-c2cc(C(F)(F)F)ccc2F)cc1OC"
17 nM

State recorded IC50 with UniProt:Q15858, entry "CNC(=O)N(c1ccc(S(=O)(=O)Nc2ccon2)cn1)c1cc(Cl)c(-c2ccc(Cl)c(C)c2)cc1OC" , no comment.
20 nM

# assay system UniProt:Q15858: give IC50 of "CNC(=O)N(c1ccc(S(=O)(=O)Nc2ncccn2)cn1)c1ccc(-c2ccc(F)c(C(F)(F)F)c2)cc1OC"
17 nM

Supply IC50 measured with UniProt:Q15858 for "CNC(=O)N(c1ccc(S(=O)(=O)Nc2ccon2)cn1)c1cc(Cl)c(-c2cc(C(F)(F)F)cnc2OC)cc1OC" .
32 nM

Please respond with reported IC50 (system UniProt:Q15858) for "CNC(=O)N(c1ccc(S(=O)(=O)Nc2ccon2)cn1)c1cc(F)c(-c2cc(F)cc(Cl)c2)cc1OC" .
92 nM

Give IC50 only, for "CNC(=O)N(c1ccc(S(=O)(=O)Nc2ccon2)cn1)c1cc(Cl)c(-c2cc(F)cc(C(F)(F)F)c2)cc1OC" , using UniProt:Q15858 data.
28 nM

Give IC50 for this entry on UniProt:Q15858: "CNC(=O)N(c1ccc(S(=O)(=O)Nc2ccon2)cn1)c1cc(Cl)c(-c2cccc(OC(F)(F)F)c2)cc1OC"
11 nM

Return reported IC50 for target or system UniProt:Q15858, item "CNC(=O)N(c1ccc(S(=O)(=O)Nc2ncccn2)cn1)c1cc(F)c(-c2ccc(F)c(C(F)(F)F)c2)cc1OC" .
32 nM

# return IC50 for "CNC(=O)N(c1ccc(S(=O)(=O)Nc2ccon2)cn1)c1cc(Cl)c(-c2cc(C)c(F)c(OC)c2)cc1OC" , test system: UniProt:Q15858
49 nM

Fill: IC50 (UniProt:Q15858) for this compound "CNC(=O)N(c1ccc(S(=O)(=O)Nc2ccon2)cn1)c1cc(F)c(-c2cccc(OC)c2)cc1OC"
206 nM

# return IC50 of "CNC(=O)N(c1ccc(S(=O)(=O)Nc2ccon2)cn1)c1cc(-c2cc(F)cc(Cl)c2)ccc1OC" (system: UniProt:Q15858)
173 nM

Please tell me the measured IC50 for "CNC(=O)N(c1ccc(S(=O)(=O)Nc2ncccn2)cn1)c1cc(Cl)c(-c2cc(OC)cc(OC)c2)cc1OC" ; system: UniProt:Q15858.
166 nM

State the measured IC50 (UniProt:Q15858) of "CNC(=O)N(c1ccc(S(=O)(=O)Nc2ccon2)cn1)c1cc(F)c(-c2ccc(F)c(Cl)c2)cc1OC"
37 nM

Specify IC50 for "CNC(=O)N(c1ccc(S(=O)(=O)Nc2ncccn2)cn1)c1cc(Cl)c(-c2ccc(F)c(OCC(F)(F)F)c2)cc1OC" , system UniProt:Q15858.
33 nM

Would you please give the reported IC50 of "CNC(=O)N(c1ccc(S(=O)(=O)Nc2cccnn2)cn1)c1cc(F)c(-c2cccc(C(F)(F)F)c2)cc1OC" with UniProt:Q15858?
40 nM

Specify the recorded IC50 for "CNC(=O)N(c1ccc(S(=O)(=O)Nc2ccon2)cn1)c1cc(-c2cc(Cl)cc(OC)c2)c(Cl)cc1OC" , system: UniProt:Q15858.
81 nM

Name the recorded IC50 of "CNC(=O)N(c1ccc(S(=O)(=O)Nc2ncccn2)cn1)c1cc(F)c(-c2cccc(OC(F)(F)F)c2)cc1OC" , assay system UniProt:Q15858.
62 nM

Write down the reported IC50 (system: UniProt:Q15858) of "CNC(=O)N(c1ccc(S(=O)(=O)Nc2ccon2)cn1)c1cc(Cl)c(-c2ccc(C(F)(F)F)c(OC)c2)cc1OC"
46 nM

Provide IC50, recorded with UniProt:Q15858, of "CNC(=O)N(c1ccc(S(=O)(=O)Nc2ccon2)cn1)c1cc(-c2ccc(C)c(Cl)c2)c(Cl)cc1OC"
76 nM

Write down measured IC50 (UniProt:Q15858) for this compound. "COc1cc(-c2ccc(Cl)c(F)c2)c(Cl)cc1N(C(N)=O)c1ccc(S(=O)(=O)Nc2ccon2)cn1"
10 nM

State the measured IC50 (UniProt:Q15858) of "CNC(=O)N(c1ccc(S(=O)(=O)Nc2ccon2)cn1)c1cc(Cl)c(-c2cc(Cl)ccc2C)cc1OC"
27 nM

Give IC50 for "CNC(=O)N(c1ccc(S(=O)(=O)Nc2ccon2)cn1)c1cc(F)c(-c2ccc(C)c(Cl)c2)cc1OC" tested on UniProt:Q15858.
31 nM

Answer briefly: IC50 recorded on UniProt:Q15858 for "CNC(=O)N(c1ccc(S(=O)(=O)Nc2ccon2)cn1)c1cc(F)c(-c2ccc(F)c(C(F)(F)F)c2)cc1OC"
12 nM

Tell me IC50 of "CNC(=O)N(c1ccc(S(=O)(=O)Nc2ccon2)cn1)c1cc(Cl)c(C#CC2CCCC2)cc1OC" when tested on UniProt:Q15858.
68 nM

Output reported IC50 of the compound "CNC(=O)N(c1ccc(S(=O)(=O)Nc2ccnc(C)n2)cn1)c1cc(Cl)c(-c2ccc(F)c(C(F)(F)F)c2)cc1OC" on UniProt:Q15858.
26 nM

Tell me IC50 of "CNC(=O)N(c1ccc(S(=O)(=O)Nc2ccon2)cn1)c1cc(Cl)c(-c2cc(OC)cc(OC(F)(F)F)c2)cc1OC" when tested on UniProt:Q15858.
9 nM

Check UniProt:Q15858 data and give IC50 for "CNC(=O)N(c1ccc(S(=O)(=O)Nc2ccon2)cn1)c1cc(F)c(-c2ccc(C)c(F)c2)cc1OC" .
124 nM

Report IC50 from UniProt:Q15858 testing of "CNC(=O)N(c1ccc(S(=O)(=O)Nc2cccnn2)cn1)c1cc(Cl)c(-c2ccc(F)c(OCC(F)(F)F)c2)cc1OC"
54 nM
